Measured T/C accompanies every entry in the list below.
- Test system: B6C3F1 mice, B16 melanoma ip, median survival T/C
- protocol-details: NCI In Vivo Anticancer Drug Screen. Data for tumor model B16 Melanoma (intraperitoneal) in B6C3F1 mice
- cond: endpoint: median survival time; dose: 25.0 mg/kg/injection; schedule: Q01DX009 (ip); vehicle: saline with Tween-80; higher = longer survival
Inconclusive results and toxic doses are left out.

- molecule: "Cc1ccc2c(c1)n([O-])c1cc(Cl)ccc1[n+]2=O"
  target-or-system: "B6C3F1 mice, B16 melanoma ip, median survival T/C"
  attribute-measured: "T/C"
  observed-measurement: "101 % of control"
- molecule: "O=C1C2CC=CCC2C(=O)N1SC(Cl)(Cl)Cl (stereo unspecified)"
  target-or-system: "B6C3F1 mice, B16 melanoma ip, median survival T/C"
  attribute-measured: "T/C"
  observed-measurement: "89 % of control"
- molecule: "C/C=C/c1cc2c(c(=O)o1)C(=O)[C@@H](O)[C@H](C)O2"
  target-or-system: "B6C3F1 mice, B16 melanoma ip, median survival T/C"
  attribute-measured: "T/C"
  observed-measurement: "100 % of control"
- molecule: "C=C1C(=O)C23[C@H](O)C1CC[C@H]2[C@]12COC3(O)[C@@H](O)[C@@H]1C(C)(C)CC[C@@H]2O"
  target-or-system: "B6C3F1 mice, B16 melanoma ip, median survival T/C"
  attribute-measured: "T/C"
  observed-measurement: "98 % of control"
- molecule: "Cn1c2c(c3ccccc3c1=O)C(=O)c1ccccc1-2"
  target-or-system: "B6C3F1 mice, B16 melanoma ip, median survival T/C"
  attribute-measured: "T/C"
  observed-measurement: "104 % of control"

Reported T/C ( CC1/C=C/C=C/CC/C=C/C=C/C=C/C=C/C(OC2OC(C)C(O)C(N)C2O)CC2OC(CC(O)C(O)CCC(O)CC(O)CC(O)CC(=O)OC(C)C(C)C1O)CC(O)C2C(=O)O (stereo unspecified) ) = 102 % of control

For Cc1ccc(NC(=O)Oc2ccc(Br)cc2Br)c([N+](=O)[O-])c1 the molecule record lists T/C as 104 % of control

----------
T/C reference
- Test system: B6C3F1 mice, B16 melanoma ip, median survival T/C
- protocol-details: NCI In Vivo Anticancer Drug Screen. Data for tumor model B16 Melanoma (intraperitoneal) in B6C3F1 mice
- cond: endpoint: median survival time; dose: 200.0 mg/kg/injection; schedule: Q01DX009 (ip); vehicle: saline; higher = longer survival
Toxic doses and inconclusive results are not listed. Where a SMILES comes first, the peptide text is derived from it.

Solved entries:
- molecule: "NCC(=O)N1CCCC1C(=O)NCC(=O)NCC(=O)O (stereo not drawn) (HELM PEPTIDE1{G.[O=C(C1CCCN1[*:1])[*:2]].G.G}$$$$V2.0)"
  target-or-system: "B6C3F1 mice, B16 melanoma ip, median survival T/C"
  T/C: "95 % of control"
- molecule: "CC(SC(C)C(=O)N/N=C/c1ccc(C#N)cc1)C(=O)N/N=C\\c1ccc(C#N)cc1 (stereo not drawn)"
  target-or-system: "B6C3F1 mice, B16 melanoma ip, median survival T/C"
  T/C: "88 % of control"
- molecule: "CC(N)C(=O)NC(CC(N)=O)C(=O)O (stereo not drawn)"
  target-or-system: "B6C3F1 mice, B16 melanoma ip, median survival T/C"
  T/C: "97 % of control"
- molecule: "NC=NCC(=O)O"
  target-or-system: "B6C3F1 mice, B16 melanoma ip, median survival T/C"
  T/C: "97 % of control"
- molecule: "COC1C(/C=C/C(C)=O)OC2OC(C)(C)OC21 (stereo not drawn)"
  target-or-system: "B6C3F1 mice, B16 melanoma ip, median survival T/C"
  T/C: "112 % of control"

Consider c1ccc(CN2CCOC2)cc1 . Its measured T/C is 113 % of control

Reported T/C of C[N+](C)(C)c1ncnc2nc[nH]c12 : 93 % of control

Briefly, T/C measured for O=C1C=CN(C2OC(CO)C(O)C2O)C(=O)C1 (stereo not drawn) : 105 % of control

Data credit: PubChem BioAssay AID200
